assay: yeast display, Sf9 membrane polyspecificity reagent, FACS + sequencing; frameworks hold sequencing errors
OBSERVATION_TYPE: polyreactivity (PSR sort gate)

RESIDUES	RESULT
QVHLVESGGGLVQAGGSLRLSCAASGRTFVYNAMGWYRQAPGKERELVAAISQSGGSTYYADSVKGRFTISRDNAKNTVYLQMNSLKPEDTAVYYCAARYKTGSYVRYNYWGQGSQVTVSS	high polyreactivity
QVQLVESGGGLVQAGGSLRLSCAASGSTFRWYAMGWYRQAPGKERELVAAITSSGSTYYADSVKGRFTISRDNAKNTVYLQMNSLKPEDTAVYYCAARANGYWNTYEHDYWGQGIQVTVSS	low polyreactivity
QVQLVESGGGLVQAGGSLRLSCAASGSTFGRYVMGWYRQAPGKERELVAAISKNAGSTYYADSVKGRFTISRDNAKNTVYLQMNSLKPEDTAVYYCNAQSFREYGYWGQGTQVTVSS	high polyreactivity
QVQLVESGGGLVQAGGSLRLSCAASGSTFDAYAMGLYRQAPGKERELVAAITNAGSTNYADSVKGRFTISRDNAKNTVYLQMNSLKPEDTAVYYCATDWYHRYLDGRYDYWGQGTQVTVSS	low polyreactivity
QVQLVESGGGLVQAGGSLRLSCAASGSTFQWYAMGWYRQAPGKERELVAAITKSGGSTYYADSVKGRFTISRDNAKNTVYLQMNSLKPEDTAVYYCAAGFWYYATEYDYWGQGTQVTVSS	low polyreactivity

Shift focus to the following entry.
[Q] Note polyreactivity (PSR sort gate) for the sequence shown: `QVQIVESGGGLVQAGGSLRLSCPASGSTFSRYAMGWYRQAPGKERELVAAISWSGGRTYYADSVKGRFTISRDYATNTVYLLMNSLKPEDTAVYYCAARKLVVILREEYWVQGTQVTVSS`
[A] high polyreactivity

* * *

experiment: yeast display, Sf9 membrane polyspecificity reagent, FACS + sequencing; frameworks hold sequencing errors
OBSERVATION_TYPE: polyreactivity (PSR sort gate)

As a guide, the following entries are already answered.
RESIDUES	RESULT
QVQLVESGGGLVQAGGRLRLSCAASGSIFIGYAMGWYRQAPGKERELVATISGSGGSTYYADSEKGRFTISRDNAKNTVSLQMNSLKPEDSAVYYCAAVSVSSWYDYWGQGTQVTVSS	low polyreactivity
QVQLVESGGGLVQAGGSLRLSCAASGSIFVTYAMGWYRQAPGKERELVASISWRGVSTRYADSVKGRFTISRDNAKNTVYLQMNSLKPEDTAVDYCAAVYRRTRSGIFDYWGQGTQVTVSS	high polyreactivity
QVQLVESGGGLGQAGGSLRLSCAASGRTFPIYVMGWYRQAPGKERELVASISASGVRTYFADSVKGRFTISRDNAKNTVYLQMNSLKPEDTAVYYCATQVRRWYSARSPNVRFDYWGQGTQVTVSS	high polyreactivity
QVQLVESGGGLVQAGGSLRLSCAASGNIFAIYAMGWYRPAPGKEREFVAAIDWSVASTYYADSVKGRFTISRDNAKNTVYLKMNSLKPEDTAVYYCAAELYCLKYGYYLSYDYWGQGTQVTVSS	high polyreactivity
QVQLVESGGGLVQAGGSLRLSCAASGSTFSYYAMGWYRQAPGKERELVAAISRTAVSTYYADSVKGRFTISRDNAKNTVYLQMNSLKPEDTAVYYCAASHFHGYSLGYDYWGQGTQVTVSS	high polyreactivity
QVQLHESGGGLVQPGGGLRLSCAPSGSISSTGFMGWNRKAPGKEREPVAAIAPGTTTYYADSVKGRFTISRDNAKNTVYLQMNSLRPEDTAVYYCAVFTDNRVAFLYWGQGTQVTVSS	low polyreactivity
QVQLVESGGGLVQAGGSLRLSCAASGRIFLYNAMGWYRQAPGKERELVAAISYNSGRTYYADSVKGRFTISRDNAKNTVYLQMNSLKPEDTAVYYCAAVSYPAVYGFDYWGQVTQVTVSS	high polyreactivity
QVQLVESGGGLVQAGGSLRLSCAASGRTFYYNAMGWYRQAPGKERELVAAISYRGGSTYYADSVKGRFTISRDNAKNTVYLQMNSLKPEDTAVYYCAKYPHPLKYPGYPSEFDYWGQGTQVTVSS	low polyreactivity
QVQLVESGGGLVQAGGSLSLMCAASGRTLRSYAMGWYRQAPGKEMEFVASISRSGGSTYYADSVKGRFTISRDNAKNTVYLQMNSLKPEDTAVYYCAAGVRYPYRYYYWGQGTQVTVSS	high polyreactivity
QVQLVDSGGGLVQAGGSLRLSCAASGRTFAYNVMGWYRQAPGKERELVAAISRGGGRTYYADSVKGRFTIARDNAKNTVYLQMNSLKPEDTAVYYCNAYLFFLNRVWSFDYWGQGTQVTVSS	high polyreactivity

[Q] Note polyreactivity (PSR sort gate) for the sequence shown: `QVQLVESRGGLVQAGGSLRLSCAASGSIFDGYAMGWYRQAPGKERELVAAITWSGGRTYYADSVKGRFTISRDNAKNTVYLQMNSLKPEDTAVYYCNAVTGSWRYDYWGQGTQVTVSS`
[A] high polyreactivity

[Q] Note polyreactivity (PSR sort gate) for the sequence shown: `QVQLVESGGGLVQAGGSLRLSCAASGFTFDWYAMGWYRQAPGKERELVAAMYYADSVKGRFTISRDNAKNTVYLQMNSLKPEDTAVYYCNAGGYFFPTVYHYGYWGQGTQVTVSS`
[A] low polyreactivity

[Q] Note polyreactivity (PSR sort gate) for the sequence shown: `QVQLVESGGGLVQAGGSLRLSWAASGSIFNTYVMGWYRQAPGKEWELVAAITYSAGGDTYYADSVKGRFTISRDNAKNTVYLQMNSLKPEDTAVYYCAAEYTYLDAYGSYDYWGQGTQVTVSS`
[A] low polyreactivity

[Q] Note polyreactivity (PSR sort gate) for the sequence shown: `QVQRVESGGGLVQAGGSLRLSCAASGRIFYPNAMGWYRQAPGTEREWVAGITRGGSTNYADSVKGRFTISRDNAKNTVYLQMNSLKPDDSAVDYCAKAIPAKIYSEAGSDYWGQGTQVTVSS`
[A] low polyreactivity

[Q] Note polyreactivity (PSR sort gate) for the sequence shown: `QVQLVESGGGLVQAGGSLRLRCAASGIIFYGNAMGWYRPAPGQERELVAAISRRSGSTYYADSVKGRFTISRDTAKNTVYLQMNSLKPEDTAVYYGNKRAANAVTINDMDYWGQGTQVTVSS`
[A] high polyreactivity
